Target: Voltage-dependent T-type calcium channel subunit alpha-1H (Homo sapiens) (UniProt O95180)
Sequence (O95180 whole entry, looked up): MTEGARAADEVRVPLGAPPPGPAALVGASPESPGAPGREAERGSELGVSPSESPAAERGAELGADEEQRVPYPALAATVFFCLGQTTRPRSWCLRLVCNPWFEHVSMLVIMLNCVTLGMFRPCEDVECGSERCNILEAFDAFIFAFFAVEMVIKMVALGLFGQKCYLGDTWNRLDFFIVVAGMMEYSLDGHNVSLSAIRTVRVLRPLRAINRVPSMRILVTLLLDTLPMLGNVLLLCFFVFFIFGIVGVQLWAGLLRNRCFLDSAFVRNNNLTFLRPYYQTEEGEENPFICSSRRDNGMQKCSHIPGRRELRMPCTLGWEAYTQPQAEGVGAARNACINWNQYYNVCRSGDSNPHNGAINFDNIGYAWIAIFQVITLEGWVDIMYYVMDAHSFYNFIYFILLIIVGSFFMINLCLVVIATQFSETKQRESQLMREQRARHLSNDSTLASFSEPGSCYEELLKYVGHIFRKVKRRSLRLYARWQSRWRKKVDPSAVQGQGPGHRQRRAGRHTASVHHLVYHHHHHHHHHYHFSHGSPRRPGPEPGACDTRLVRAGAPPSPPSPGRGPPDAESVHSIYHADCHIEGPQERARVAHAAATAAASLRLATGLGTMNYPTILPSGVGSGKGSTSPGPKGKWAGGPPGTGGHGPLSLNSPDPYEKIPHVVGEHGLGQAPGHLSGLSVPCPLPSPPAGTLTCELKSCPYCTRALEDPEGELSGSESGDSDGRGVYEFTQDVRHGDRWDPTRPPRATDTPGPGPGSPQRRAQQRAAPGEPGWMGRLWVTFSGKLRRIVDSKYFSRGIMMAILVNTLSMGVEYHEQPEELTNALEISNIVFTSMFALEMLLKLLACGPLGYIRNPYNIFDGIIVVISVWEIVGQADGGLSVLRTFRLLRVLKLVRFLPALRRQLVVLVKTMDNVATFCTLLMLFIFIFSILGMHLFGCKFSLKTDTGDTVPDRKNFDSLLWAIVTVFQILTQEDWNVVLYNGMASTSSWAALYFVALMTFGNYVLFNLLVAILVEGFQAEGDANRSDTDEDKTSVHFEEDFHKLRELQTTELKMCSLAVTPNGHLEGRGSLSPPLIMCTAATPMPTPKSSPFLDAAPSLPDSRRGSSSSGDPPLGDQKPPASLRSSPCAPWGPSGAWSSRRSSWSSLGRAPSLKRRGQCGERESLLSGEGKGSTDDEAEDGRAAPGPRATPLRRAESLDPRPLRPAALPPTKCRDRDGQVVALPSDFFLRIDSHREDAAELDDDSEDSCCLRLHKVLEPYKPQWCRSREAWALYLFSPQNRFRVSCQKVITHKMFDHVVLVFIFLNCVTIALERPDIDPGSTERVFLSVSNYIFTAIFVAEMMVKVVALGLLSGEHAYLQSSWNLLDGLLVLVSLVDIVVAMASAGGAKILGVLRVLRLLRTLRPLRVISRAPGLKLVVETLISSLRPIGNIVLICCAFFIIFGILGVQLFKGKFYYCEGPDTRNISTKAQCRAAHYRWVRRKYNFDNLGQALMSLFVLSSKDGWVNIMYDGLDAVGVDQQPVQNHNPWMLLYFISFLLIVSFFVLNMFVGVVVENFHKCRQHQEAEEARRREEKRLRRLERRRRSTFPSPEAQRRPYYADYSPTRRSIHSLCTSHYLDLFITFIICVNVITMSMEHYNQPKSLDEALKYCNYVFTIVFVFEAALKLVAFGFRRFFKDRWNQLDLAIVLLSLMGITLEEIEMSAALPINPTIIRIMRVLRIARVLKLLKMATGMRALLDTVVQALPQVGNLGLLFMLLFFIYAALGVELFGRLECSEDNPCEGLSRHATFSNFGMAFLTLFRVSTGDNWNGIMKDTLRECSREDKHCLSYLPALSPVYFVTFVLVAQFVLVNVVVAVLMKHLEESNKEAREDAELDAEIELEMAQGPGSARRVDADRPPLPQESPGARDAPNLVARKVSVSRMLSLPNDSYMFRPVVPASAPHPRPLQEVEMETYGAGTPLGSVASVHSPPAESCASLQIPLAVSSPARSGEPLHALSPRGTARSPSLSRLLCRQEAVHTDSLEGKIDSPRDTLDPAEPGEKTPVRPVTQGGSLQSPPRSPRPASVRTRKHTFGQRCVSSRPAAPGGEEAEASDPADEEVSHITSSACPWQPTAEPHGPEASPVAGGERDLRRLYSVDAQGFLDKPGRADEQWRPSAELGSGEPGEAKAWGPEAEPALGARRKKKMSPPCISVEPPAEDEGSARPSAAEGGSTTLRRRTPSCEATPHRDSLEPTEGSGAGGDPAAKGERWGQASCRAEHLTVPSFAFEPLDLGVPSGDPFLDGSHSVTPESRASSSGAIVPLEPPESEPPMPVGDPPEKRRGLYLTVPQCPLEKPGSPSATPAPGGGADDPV
Assay: Cav3.2 calcium influx blockers – cell-based, Fluo-4 calcium fluorescence, FDSS, MLSMR library, primary screen (AID 449739)
Details: Cav3.2-expressing cells, at 10 µM, active compounds read low
In all, about 100,000 compounds went through this assay and about 4,200 (4.2%) were called active. The sample as a whole holds a higher share of actives than the screen did.
B-score values for the compounds below.
Please reply with the number alone, leaving off any unit.

Prompt: I am curious: what B-score value has been reported for C#CCO[C@@H]1C[C@H](n2cnc3c(=O)[nH]c(NC(=O)C(C)C)nc32)O[C@@H]1CO ?
Completion: 0.0144

Prompt: I am curious: what B-score value has been reported for O=C(NCCc1ccc2c(c1)OCCO2)c1cc2ccccc2o1 ?
Completion: -3.85

Prompt: I am curious: what B-score value has been reported for O=C(ON=C1CCN(S(=O)(=O)c2ccccc2)CC1)c1ccc(Cl)cc1 ?
Completion: 0.782

Prompt: I am curious: what B-score value has been reported for CCCc1[nH]nc2c1C(c1ccc(OC)c(Cn3nc(C)c(Br)c3C)c1)C(C#N)=C(N)O2 (stereo unspecified) ?
Completion: -0.964

Prompt: I am curious: what B-score value has been reported for O=C(COC(=O)C12CC3CC(CC(C3)C1)C2)NCc1ccco1 ?
Completion: -0.704
